assay: Lipophilicity, log P of the compound; type: physicochemical; details: octanol/water
Assay Endpoint: logP
// print number alone

Compound | logP
COc1ccc(C(=O)CSc2nc3ccccc3c(=O)n2-c2ccccc2)cc1 | 4.82
CCC1(c2ccccc2)C(=O)NC(=O)NC1=O | 1.36
COc1ccc(/C=N/Nc2nc3ccccc3c(=O)n2-c2ccccc2)cc1OC | 4.72

**Query** For the compound shown here, O=c1c2ccccc2nc(N/N=C/c2ccc(Cl)cc2)n1-c1ccccc1 , give the reported logP.
**Result** 5.53

###

test: Lipophilicity, log P of the compound; assay type: physicochemical; settings: octanol/water
The following molecules are shown together with reported logP values.
// print number alone

Some solved entries appear below for comparison.
Molecule | logP
O=C1NN=C(c2ccccc2)C(c2ccccc2)C1Sc1nc2ccccc2c(=O)n1-c1ccccc1 (stereo not drawn) | 6.4
O=C(CSc1nc2ccccc2c(=O)n1-c1ccccc1)c1ccc(Cl)cc1 | 5.5
O=c1c2ccccc2n2c(-c3ccc(Cl)cc3)nnc2n1-c1ccccc1 | 5.25
CCn1c(SCC(=O)c2ccc(Br)cc2)nc2ccccc2c1=O | 4.45
O=C1C=C(Sc2nc3ccccc3c(=O)n2-c2ccccc2)C(=O)N=N1 | 2.13
COc1ccc(-c2nnc3n(-c4ccccc4)c(=O)c4ccccc4n23)cc1OC | 4.44
N#Cc1cnn(-c2nc3ccccc3c(=O)n2-c2ccccc2)c1N | 3.01

**Query** For the molecule shown here, O=C(CSc1nc2ccccc2c(=O)n1-c1ccccc1)c1ccc(Br)cc1 , give the reported logP.
**Result** 5.77
